Measured inhibition at 4 µg/mL, listed per entry.
- System: guinea pig ileum
- assayRemarks: In vitro anticholinergic activity in the isolated guinea pig ileum (field stimulation)
- Assay type: cell-based, male Hartley guinea pigs
- conditionSet: Cavia porcellus; at 4 mg/L; field stimulation 100-150 V, 10 msec, 0.2 Hz; read-out: Anticholinergic Inhibition of Guinea Pig Ileum
The figure you give is taken to be in %; do not add the unit.

| smilesString | scaleUnit | inhibition at 4 µg/mL |
| --- | --- | --- |
| CN(C)Cc1cc(Nc2nncc3ccccc23)cc(CN(C)C)c1O | % | 14 |
| Oc1c(CN2CCCC2)cc(Nc2ncnc3ccccc23)cc1CN1CCCC1 | % | 43 |
| COc1cc2c(Nc3cc(CN4CCCC4)c(O)c(CN4CCCC4)c3)ncnc2c(OC)c1OC | % | 14 |

[ask] # value lookup — system guinea pig ileum, readout inhibition at 4 µg/mL, item Oc1c(CN2CCCC2)cc(Nc2ccncc2)cc1CN1CCCC1
[reply] 5

[ask] And the next one, Clc1nnc(Nc2cc(CN3CCCC3)cc(CN3CCCC3)c2)c2ccccc12 ?
[reply] 93
